- test.target: T1, Rapsn-EGFP, purified ( (the printed UniProt entry …, UniProt P12672 1-412))
- T1 sequence (looked up): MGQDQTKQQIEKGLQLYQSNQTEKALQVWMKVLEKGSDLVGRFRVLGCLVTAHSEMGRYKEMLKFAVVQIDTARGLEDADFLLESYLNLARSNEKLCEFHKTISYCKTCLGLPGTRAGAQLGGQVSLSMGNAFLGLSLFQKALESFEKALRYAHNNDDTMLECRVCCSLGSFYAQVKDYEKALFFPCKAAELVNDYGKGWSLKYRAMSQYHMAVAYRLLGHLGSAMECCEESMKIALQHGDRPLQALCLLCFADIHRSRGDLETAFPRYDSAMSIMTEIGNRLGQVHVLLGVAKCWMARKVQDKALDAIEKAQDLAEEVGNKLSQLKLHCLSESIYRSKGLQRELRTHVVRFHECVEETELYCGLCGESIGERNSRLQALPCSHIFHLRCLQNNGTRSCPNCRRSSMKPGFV
- protocol.details: co-condensation into droplets
measured.endpoint: binding result

binder | measured.value
GST-β-dystroglycan (aa 773Y-893P) (domain or fragment, UniProt Q62165 773-893, looked up, CF555 label (Mix-n-Stain CF555)) YRKKRKGKLTLEDQATFIKKGVPIIFADELDDSKPPPSSSMPLILQEEKAPLPPPEYPNQSMPETTPLNQDTVGEYTPLRDEDPNAPPYQPPPPFTAPMEGKGSRPKNMTPYRSPPPYVPP | binds
GST-AChR-α (loop between 3rd and 4th transmembrane domains) (domain or fragment, UniProt P04756 317-428, looked up, CF555 label (Mix-n-Stain CF555)) NTHHRSPSTHIMPEWVRKVFIDTIPNIMFFSTMKRPSRDKQEKRIFTEDIDISDISGKPGPPPMGFHSPLIKHPEVKSAIEGVKYIAETMKSDQESNNAAEEWKYVAMVMDH | binds
GST-MACF1 (aa 1M-293I) (domain or fragment, UniProt Q9QXZ0 1-293, looked up, CF555 label (Mix-n-Stain CF555)) MSSSDEETLSERSCRSERSCRSERSYRSERSGSLSPCPPGDTLPWNLPLHEQKKRKSQDSVLDPAERAVVRVADERDRVQKKTFTKWVNKHLMKVRKHINDLYEDLRDGHNLISLLEVLSGIKLPREKGRMRFHRLQNVQIALDFLKQRQVKLVNIRNDDITDGNPKLTLGLIWTIILHFQISDIYISGESGDMSAKEKLLLWTQKVTAGYTGVKCTNFSSCWSDGKMFNALIHRYRPDLVDMERVQVQSNRENLEQAFEVAERLGVTRLLDAEDVDVPSPDEKSVITYVSSI | binds
